- System: RD-ES
- protocol: relative viability vs DMSO control (72 h) (fraction); higher = more viable cells
- run parameters: 0.00152 µM
reported property: relative viability

COc1cc2ncnc(Nc3ccc(F)c(Cl)c3)c2cc1OCCCN1CCOCC1 = 0.954

// recorded relative viability for `C#Cc1cccc(Nc2ncnc3cc4c(cc23)OCCOCCOCCO4)c1` : 0.989

// recorded relative viability for `Cn1cnc2c(F)c(Nc3ccc(Br)cc3Cl)c(C(=O)NOCCO)cc21` : 0.95

// recorded relative viability for Cc1cc2c(F)c(Oc3ncnn4cc(OC[C@@H](C)OC(=O)[C@H](C)N)c(C)c34)ccc2[nH]1 [Brivanib_alaninate] : 0.983

// recorded relative viability for `CC(=O)c1c(C)c2cnc(Nc3ccc(N4CCNCC4)cn3)nc2n(C2CCCC2)c1=O` : 0.98

// recorded relative viability for `C[C@@H]1CN(C(=O)c2ccc(NC(=O)c3cc(O[C@H](C)c4c(Cl)ccc(F)c4Cl)c(N)nn3)cc2)C[C@H](C)N1` : 0.989

====

- Test system: SYO-1
- protocol: relative viability vs DMSO control (72 h) (fraction); higher = more viable cells
- run parameters: 0.00051 µM
reported property: relative viability
Answer as a number with no unit attached.

These recorded examples may help you get a feel for the data.
C=CC(=O)N1CCC(CNc2ncnc(N)c2-c2ccc(Oc3ccccc3)cc2)CC1 = 1.02
CC(=O)c1c(C)c2cnc(Nc3ccc(N4CCNCC4)cn3)nc2n(C2CCCC2)c1=O = 1
Cc1[nH]c(/C=C2\C(=O)Nc3ccccc32)c(C)c1CCC(=O)O [Orantinib] = 1.01

// recorded relative viability for `C[C@@H]1CN(C(=O)c2ccc(NC(=O)c3cc(O[C@H](C)c4c(Cl)ccc(F)c4Cl)c(N)nn3)cc2)C[C@H](C)N1` : 1.01

====

- System: HS729
- protocol: relative viability vs DMSO control (72 h) (fraction); higher = more viable cells
- run parameters: 0.00152 µM
Listed next: entries and their corresponding relative viability.
Answer as a number with no unit attached.

These recorded examples may help you get a feel for the data.
CCS(=O)(=O)N1CC(CC#N)(n2cc(-c3ncnc4[nH]ccc34)cn2)C1 [Baricitinib] = 0.999
O=C1CCc2c(Oc3ccc4c(c3)[C@@H]3[C@H](O4)[C@H]3c3nc4cc(C(F)(F)F)ccc4[nH]3)ccnc2N1 [Lifirafenib] = 0.926
CNC(=O)c1c(C)oc2cc(Oc3ncnc4cc(OC)c(OC)cc34)ccc12 [Fruquintinib] = 0.959

// recorded relative viability for COC(=O)c1ccc2c(c1)NC(=O)/C2=C(\Nc1ccc(N(C)C(=O)CN2CCN(C)CC2)cc1)c1ccccc1 [Nintedanib] : 1.01

====

- Test system: KHOS-NP
- protocol: relative viability vs DMSO control (72 h) (fraction); higher = more viable cells
- run parameters: 1.111 µM
Listed next: entries and their corresponding relative viability.
Answer as a number with no unit attached.

CO[C@H]1C[C@@H]2CC[C@@H](C)[C@@](O)(O2)C(=O)C(=O)N2CCCC[C@H]2C(=O)O[C@H]([C@H](C)C[C@@H]2CC[C@@H](OC(=O)C(C)(CO)CO)[C@H](OC)C2)CC(=O)[C@H](C)/C=C(\C)[C@@H](O)[C@@H](OC)C(=O)[C@H](C)C[C@H](C)/C=C/C=C/C=C/1C [Temsirolimus] = 0.96
C[C@@H]1CN(C(=O)c2ccc(NC(=O)c3cc(O[C@H](C)c4c(Cl)ccc(F)c4Cl)c(N)nn3)cc2)C[C@H](C)N1 [Ensartinib] = 1.02
O=C1CCc2c(Oc3ccc4c(c3)[C@@H]3[C@H](O4)[C@H]3c3nc4cc(C(F)(F)F)ccc4[nH]3)ccnc2N1 [Lifirafenib] = 0.843
CNC(=O)c1c(C)oc2cc(Oc3ncnc4cc(OC)c(OC)cc34)ccc12 [Fruquintinib] = 1.07

// recorded relative viability for CN(C)CCCOc1ccc(-c2ccc3ncc4c(c3c2)n(C2CCOCC2)c(=O)n4C)cn1 [AZD-0156] : 1.03

// recorded relative viability for CCOc1cc2ncc(C#N)c(Nc3ccc(OCc4ccccn4)c(Cl)c3)c2cc1NC(=O)/C=C/CN(C)C [Neratinib] : 0.73

====

- Tested on: HT1080
- protocol: relative viability vs DMSO control (72 h) (fraction); higher = more viable cells
- run parameters: 0.00051 µM
Listed next: entries and their corresponding relative viability.
Answer as a number with no unit attached.

These recorded examples may help you get a feel for the data.
COc1cc2ncnc(Nc3ccc(F)c(Cl)c3)c2cc1OCCCN1CCOCC1 [Gefitinib] = 1.1
CN(C)C/C=C/C(=O)Nc1cc2c(Nc3ccc(F)c(Cl)c3)ncnc2cc1O[C@H]1CCOC1 [Afatinib] = 1.12
CCOc1cc2ncc(C#N)c(Nc3ccc(OCc4ccccn4)c(Cl)c3)c2cc1NC(=O)/C=C/CN(C)C [Neratinib] = 1.05

Now look at this one.
Form: item COc1cc(N2CCC(N3CCN(C)CC3)CC2)ccc1Nc1ncc(Cl)c(Nc2ccccc2P(C)(C)=O)n1 [Brigatinib] ; test system HT1080; relative viability: 1.03

====

- System: SW982
- protocol: relative viability vs DMSO control (72 h) (fraction); higher = more viable cells
- run parameters: 0.00457 µM
reported property: relative viability

O=C(c1ccc(F)c(F)c1Nc1ccc(I)cc1F)N1CC(O)([C@@H]2CCCCN2)C1 [Cobimetinib] = 1.01
C=CC(=O)N1CCC(CNc2ncnc(N)c2-c2ccc(Oc3ccccc3)cc2)CC1 [Evobrutinib] = 1.07
CO[C@H]1C[C@@H]2CC[C@@H](C)[C@@](O)(O2)C(=O)C(=O)N2CCCC[C@H]2C(=O)O[C@H]([C@H](C)C[C@@H]2CC[C@@H](OC(=O)C(C)(CO)CO)[C@H](OC)C2)CC(=O)[C@H](C)/C=C(\C)[C@@H](O)[C@@H](OC)C(=O)[C@H](C)C[C@H](C)/C=C/C=C/C=C/1C [Temsirolimus] = 0.667
C#Cc1cccc(Nc2ncnc3cc4c(cc23)OCCOCCOCCO4)c1 [Icotinib] = 1.03

// recorded relative viability for CS(=O)(=O)CCNCc1ccc(-c2ccc3ncnc(Nc4ccc(OCc5cccc(F)c5)c(Cl)c4)c3c2)o1 [Lapatinib] : 1.03

// recorded relative viability for CN(C)CCCOc1ccc(-c2ccc3ncc4c(c3c2)n(C2CCOCC2)c(=O)n4C)cn1 [AZD-0156] : 1.05

Values from the supplement of paper PMC10883282
